src = patent US20180042891A1

# Test system: PC-3 prostate cancer cells
# ASSAY_REMARKS: Caspase 3/7 apoptosis and CellTiter-Blue cell viability assay, 24 hour
# Assay type: cell-based, human
# CONDITION_NOTES: PC-3, 24 hours incubation
pIC50: −log10 of the molar value.
REPORTED_ENDPOINT: pIC50

For the compound N.N.[Cl][Pt][Cl] [Cisplatin, reference compound] , give its reported pIC50.
~4.24

* * *

# Test system: MDA-MB-231 breast cancer cells
# ASSAY_REMARKS: Caspase 3/7 apoptosis and CellTiter-Blue cell viability assay, 24 hour
# Format: cell-based, human
# CONDITION_NOTES: MDA-MB-231, 24 hours incubation
pIC50: −log10 of the molar value.
REPORTED_ENDPOINT: pIC50

For the molecule N.N.[Cl][Pt][Cl] [Cisplatin, reference compound] , give its reported pIC50.
< 4.48
